# credit: patent US11472877

Biological target: T1, mouse TREM2 on BWZ cells (mouse, UniProt Q99NH8 19-227)
T1 construct: whole, on cells; also called BWZ Mouse TREM2
T1 sequence (looked up): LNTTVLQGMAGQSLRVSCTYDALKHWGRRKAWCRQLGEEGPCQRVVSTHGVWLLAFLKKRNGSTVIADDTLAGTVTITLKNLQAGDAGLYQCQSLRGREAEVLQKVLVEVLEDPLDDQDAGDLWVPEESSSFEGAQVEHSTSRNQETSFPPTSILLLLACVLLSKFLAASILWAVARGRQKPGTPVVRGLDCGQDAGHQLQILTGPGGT
Assay: FACS, BWZ mouse TREM2
parameter measured: FOB Fold Over Background (fold)
Please reply with the bare figure in fold and do not write the unit itself.

Completed entries (count: 2):
>>> reported("T1-54 (antibody, IgG1, V domains shown, huIgG1; also called TI-54; ADI-19129) VH: QVQLVQSGAEVKKPGSSVKVSCKASGGTFSSYAISWVRQAPGQGLEWMGGIIPIFGTANYAQKFQGRVTITADESTSTAYMELSSLRSEDTAVYYCARHWYALGSFDIWGQGTMVTVSS VL: EIVMTQSPATLSLSPGERATLSCRASQSVSSYLAWYQQKPGQAPRLLIYDSSNRATGIPARFSGSGSGTDFTLTISSLEPEDFAVYYCQQHDVWPITFGGGTKVEIK")
1.2
>>> reported("T1-23 (antibody, IgG1, V domains shown, huIgG1; also called TI-23; ADI-19090) VH: EVQLVESGGGLVQPGRSLRLSCAASGFTFDDYAMHWVRQAPGKGLEWVSGITWNSGSIGYADSVKGRFTISRDNAKNSLYLQMNSLRAEDTALYYCAKGPRLLSALDVWGQGTMVTVSS VL: DIQMTQSPSTLSASVGDRVTITCRASQSIGSWLAWYQQKPGKAPKLLIYKASSLESGVPSRFSGSGSGTEFTLTISSLQPDDFATYYCQQHQSFSPTFGGGTKVEIK")
1.2

Turning now to a further record.
GET /values?readout=FOB Fold Over Background&item= T1-16 (antibody, IgG1, V domains shown, huIgG1; also called TI-16; ADI-19083) VH: EVQLVESGGGLVQPGRSLRLSCAASGFTFDDYAMHWVRQAPGKGLEWVSGISWNSGSIGYADSVKGRFTISRDNAKNSLYLQMNSLRAEDTALYYCAKGPRMSGWWADWGQGTLVTVSS VL: DIQMTQSPSSVSASVGDRVTITCRASQGISSWLAWYQQKPGKAPKLLIYAASSLQSGVPSRFSGSGSGTDFTLTISSLQPEDFATYYCQQADTLPITFGGGTKVEIK
1.2
